Kindly state amyloid nucleation score for each of the entries shown.
- assayRemarks: amyloid nucleation score (Sup35N fusion, yeast selection) (log enrichment); library NNK1; higher = more nucleation; inactive = no reads after selection;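 note: zero at mode of non-aggregating sequences after 7 days selection at 30°C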
Give the value as a plain number.

Look up and report measured amyloid nucleation score for this entry: `YSEYPSLLGRSSGMIDNFKG` 0.597

Find the measured amyloid nucleation score of `HCNSNVTWKV` and report it. 0.414

Identify measured amyloid nucleation score corresponding to `FNKVYMSSIVASKVVKMRLI` -0.476

Read off the recorded amyloid nucleation score for `VGLISALANTGMFRTSNCVF` 0.426

Output amyloid nucleation score of `LDHTTVWCWCGTGGLYRRCC` -0.29

Give recorded amyloid nucleation score. `TFYNFAMSFKEVCCCMSWRG` 7.14

Please supply the value of reported amyloid nucleation score for the item `SWDLGREYSGHRMTCLVWLV` -0.403

For the substance `LFMLWLCCIKVFNKGCFGRS` , report amyloid nucleation score. -0.297

Please supply the value of reported amyloid nucleation score for the item `LFWWKE` -0.292

Supply reported amyloid nucleation score belonging to this substance: `PCALGECRLVNSVISRGFGR` 0.38

Input `NDYTELEIFCNLLRLMFWVV` , output reported amyloid nucleation score. -0.162

Determine its reported amyloid nucleation score: `EEFFMLRVDWIEEANQCKRE` 0.221

Report amyloid nucleation score, nothing else, for this substance: `VLQQGTSLTKYV` 0.509

Supply recorded amyloid nucleation score for `ISGFRKLVMVREVP` here. -0.606

Give amyloid nucleation score for the following substance: `CCLLDWSLDNGYNRQLRKET` 0.219

* * *

- assayRemarks: amyloid nucleation score (Sup35N fusion, yeast selection) (log enrichment); library NNK1; higher = more nucleation; inactive = no reads after selection
// thresholds for amyloid nucleation score classes: bottom range: < -0.2; center range: ≥ -0.2 and < 0.5; top range: ≥ 0.5

Quick check: band for `YSCIYKWHECNNVNDNMK` center range

The entry to classify is `HLLALFTSFVTITPW` ; which class holds it? bottom range

# bin lookup: classify `TTEFIGES` by its amyloid nucleation score top range

Textbook exercise: identify the category of the substance given here, `RGEKHVRVYRVMSV` , according to its measured value. center range

Hi there! Could you help me figure out the category for `HRQTNKGEHIQDHAAMLVFR` please? center range

Which bin, given its amyloid nucleation score, does `VRKYRRWSRMIWGCYNNFVF` occupy? bottom range

Dear colleague, I would appreciate it if you could identify the bin for `VMGVLYSRADSVVEIGLLRV` and reply at your convenience. bottom range

Note: place this substance into its band. Item: `KLMLLLSNSMNQRSDYPRFQ` bottom range

Any idea which band `RTRLFYFGPDNNRVRRRGCS` is in? top range

Please report the category associated with `IEQSNMVTARRLELLRSAVS` , nothing else. center range

Assign a bin to `GMAWSRSLRVGHSGIMGRAV` center range

# classify by amyloid nucleation score band: `GGRLRW` center range

Which class holds `IFDYSTLECESDEGEAEGMS` ? top range

Hi, small favor: classify `FSSLMLLTGEYSLSIWCKRS` by its amyloid nucleation score when you get a moment. top range

Could you place `ILRTFVSSCVDVGTYSTTKC` in its proper category? Many thanks. bottom range

# bin lookup: classify `AIPLSDRR` by its amyloid nucleation score top range

Class label required: `PDNRAINVFTLPVAVS` top range

Bin? `IHVAFHSLSQCGRCVYCSVL` top range

Which class holds `HSTCLPNTIQTLRRRALSCR` ? bottom range

Could you place `LYWSPVWM` in its proper category? Many thanks. bottom range

Form: Item = `AIHMEHCCFVNVQRILRFVV` ; Class = ? top range

Returns: class label. Input: `MLEESVLHSLLICGANSVFK` center range

Categorize the following entry: `LRSEEVFTHMRAGVAKSFWD` center range

Consider `VMRPFWMMMFYFYVEPEALS` . To which amyloid nucleation score class does it belong? bottom range

For this substance, which bin applies? `AGIQIGWVIHSLCSSELRLS` bottom range

GET /class?item= `PWASNIAFLNFPTCTDCDG` top range

Class for `WPLLPVELNVSTRHENGLLM` ? top range

Bin? `RNMLELSFWCYEMKNSSSWS` top range

Hi there! Could you help me figure out the category for `FPEFIVFRMRIVYIVSFRTW` please? top range

Quick check: band for `CRTCRNQRMKDKSELSWLMS` bottom range

Kindly identify the class of `FIVDLWCMLFNSILAGCVVV` . center range

Hey, which category is `GTHEVLCNDHPCVYRHILRC` in, do you know? bottom range

Which class does `NVSISVR` fall in? center range

Which of the defined bands does the recorded amyloid nucleation score of `TGSLWRLRTSACWVLNHRKS` sit within? bottom range

Which class does `CKRNQTTVSVVGWFI` fall in? bottom range

Each substance maps to one class by amyloid nucleation score. Which class for `TRLSRERINRDWEREGCLTP` ? top range

Exercise: read the entry `YTSGLFGF` and state which class it falls under. bottom range

Classify this substance: `TCCNDDKRYIWCIYSRAKMN` bottom range

Quick check: band for `SIPYSRRVF` center range

# bin label for `RAAYACWHFTLYNFSLIVTT` top range

Note: place this substance into its band. Item: `WLKVRNTR` center range

Kindly state the category for this substance: `WMAFWGWVLYYFSFHFTFNV` center range

Determine which band this substance sits in: `AILNRLLSLPSFPVPSSDSQ` center range

Entry `ASCVGNINDCRPNIAFWVEE` belongs to which category? top range

Band of `LCAISHIE` ? bottom range

The entry to classify is `TNWAVKGWAVECRRHSGPNT` ; which class holds it? top range

Textbook exercise: identify the category of the substance given here, `IYQKGMVLGATRNGFSRCKG` , according to its measured value. center range

Exam item: assign `SVGDVVYGEFLIAKQSAACV` to the correct category. center range

State the band of `VFRWRNKLRNNLCRGKYYWT` top range

Into which category would you place `FSMLIDEELDFSAETSLRHG` ? top range

Quick check: band for `AVMPHCSCTRNQRFRLVSMH` top range

In plain terms, what class is `DAMRGLPFYQYMHHMGNGYW` ? center range

Which class does `YLYAACVVWLMLLPNME` fall in? bottom range

Any idea which band `FDQLEGLRCASSWKLLSSPG` is in? center range

Quick check: band for `MRHGSKAWQLYRLFKYDFFW` top range

Field: class (amyloid nucleation score) — entry: `YFKLIVLVGLNAREWRAAMV` bottom range

Category of `MFLNII` , please. center range

Class (by measured amyloid nucleation score) for `RLSSSIYAFSDIHCGMSEAQ` center range

Into which category would you place `FYVGDVITHHWEAELNYSDV` ? bottom range

GET /class?item= `GVAMCEEWRLMISE` center range

Returns: class label. Input: `MQWSYV` center range

Hey, which category is `SRSGSLKCRGAQGFTCY` in, do you know? top range

Category lookup for the substance `WDWSERLQAFWSVTLSSNSW` top range

State the class of the substance shown: `WVNVTRVNGRDEGAPSIRNK` bottom range

* * *

- assayRemarks: amyloid nucleation score (Sup35N fusion, yeast selection) (log enrichment); library NNK1; higher = more nucleation; inactive = no reads after selection
Provide the reported amyloid nucleation score of each item.
Write no unit; give the number alone.

Entry `PQQEGISLSDALPLPEEGRV` needs its amyloid nucleation score filled in; supply it. 0.535

Give reported amyloid nucleation score value for `VLSVSCVRYISGVRERWYVL` 1.23

Output measured amyloid nucleation score for this item: `LARYMIYWGLMSAGRHRRHY` -0.46

Answer with reported amyloid nucleation score of `SSYCNLVASIL` 0.649

Name the recorded amyloid nucleation score of the substance listed here: `MLSNGGLHVRSK` 1.31

Indicate its recorded amyloid nucleation score; the substance in question is `TFSTGRACLNEVRNVGMFKM` 0.75

Recall and state the measured amyloid nucleation score for `YVRIVIAYFKFSKQFSSQLV` . 0.089

Kindly indicate its recorded amyloid nucleation score. Item: `VFHFYILMNCESCVTGGVPV` 7.94

Quick one: give measured amyloid nucleation score for `FYISNMM` -1.35

Read off the recorded amyloid nucleation score for `LQILLLVSCLSQYAANKRRA` -0.291

Output measured amyloid nucleation score for this item: `DVRRYSGLNRAMKLRWGSCA` 0.193

Give the reported value of amyloid nucleation score for this record: `GGVFMMSSDSTQIIRYVKSR` 0.752

For the substance `VGRMPNGYVVGINIGLSRRL` , give its measured amyloid nucleation score value. -0.696

Supply recorded amyloid nucleation score for `VIGKMDEVGSIVEFDSGIRV` here. 0.658

For the substance `YYSFGRFKYTILL` , give its reported amyloid nucleation score. -0.242
